Biological target: MAGL (Homo sapiens, UniProt Q99685)
Sequence (Q99685 1-303): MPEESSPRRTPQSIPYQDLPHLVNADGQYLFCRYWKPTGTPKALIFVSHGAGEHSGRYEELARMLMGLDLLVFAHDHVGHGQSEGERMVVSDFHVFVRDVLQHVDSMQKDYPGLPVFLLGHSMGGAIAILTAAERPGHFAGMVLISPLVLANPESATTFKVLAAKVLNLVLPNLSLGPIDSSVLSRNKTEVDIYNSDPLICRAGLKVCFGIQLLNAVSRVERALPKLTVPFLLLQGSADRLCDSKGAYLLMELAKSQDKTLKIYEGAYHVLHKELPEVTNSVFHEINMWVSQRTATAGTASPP
pIC50: −log10 of the molar value.
Endpoint label: pIC50

Please review the entries below; each comes with its answer.
1. CC1CN(c2ccc(C3CN(C(=O)N4CC[C@@H]5OCC(=O)N[C@@H]5C4)C3)cc2)C1 [Example 151]    8.30
2. CC1CCN1c1ccc(C2CN(C(=O)N3CC[C@@H]4OCC(=O)N[C@@H]4C3)C2)cc1 (some centres unmarked) [Example 217]    8.22

[a] Cn1ncc2cc(C3CN(C(=O)N4CC[C@@H]5OCC(=O)N[C@@H]5C4)C3)ccc21 [Example 241]
[b] CC(Oc1ccc(C(F)(F)F)cc1F)C1CN(C(=O)N2CC[C@@H]3OCC(=O)N[C@@H]3C2)C1 (single isomer, unassigned) [Example 96]
[c] CC(c1ccc(C(F)(F)F)cc1)C1CCN(C(=O)N2CC[C@@H]3OCC(=O)N[C@@H]3C2)CC1 (single isomer, unassigned) [Example 47]
[d] O=C1CO[C@H]2CCN(C(=O)N3CC(c4ccc(-c5ccc(Cl)cc5)cc4)C3)C[C@H]2N1 [Example 111]
[e] O=C1CO[C@H]2CCN(C(=O)N3CC(c4ccc(CCCF)cc4)C3)C[C@H]2N1 [Example 247]
Prompt line: Write the entries in order, lowest recorded pIC50 first. Give me the labels in the order the question wants.
Response line: c, a, b, e, d

[1] CC1C(c2ccc(OC(F)(F)F)cc2)CN1C(=O)N1CC[C@@H]2OCC(=O)N[C@@H]2C1 (some centres unmarked) [Example 231]
[2] CS(=O)(=O)c1cccc(C(c2ccccn2)C2CCN(C(=O)N3CC[C@@H]4OCC(=O)N[C@@H]4C3)CC2)c1 (single isomer, unassigned) [Example 190]
Prompt line: Which value of pIC50 is numerically greater: that of 1 or that of 2 ? Mark your answer with the label of the selected entry.
Response line: 1
(1: 6.94, 2: 6.58)

[a] CC(C)(OC1CN(c2ccc(C3CN(C(=O)N4CC[C@@H]5OCC(=O)N[C@@H]5C4)C3)cc2)C1)C(F)(F)F [Example 147]
[b] O=C1CO[C@H]2CCN(C(=O)N3CC(c4ccn(-c5ccc(Cl)cc5Cl)n4)C3)C[C@H]2N1 [Example 257]
[c] Cc1ccccc1-c1ccc(C2CN(C(=O)N3CC[C@@H]4OCC(=O)N[C@@H]4C3)C2)cc1 [Example 137]
[d] O=C1CO[C@H]2CCN(C(=O)N3CC(c4ccc(Br)cc4)C3)C[C@H]2N1 [Example 110]
[e] O=C1CO[C@H]2CCN(C(=O)N3CCC(C(OCC(F)(F)F)c4ccc(F)cc4)CC3)C[C@H]2N1 (some centres unmarked) [Example 50]
Prompt line: Order the records so the highest pIC50 appears first and the lowest last. Give me the labels in the order the question wants.
Response line: c, a, e, d, b
